- Tested on: RARb:RXRa (NR concentration 270 nM, RXRa partner concentration 90 nM)
- Test Description: PBM binding z-score (relative to random genomic background probes); higher = stronger binding; sequences stand for … in GC…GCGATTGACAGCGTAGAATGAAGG
PBM binding z-score of 2 or higher: MET. Under 2: NOT MET.

seq_string=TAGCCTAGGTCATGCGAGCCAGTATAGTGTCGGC target_entity="RARb:RXRa (NR concentration 270 nM, RXRa partner concentration 90 nM)" cat=MET
seq_string=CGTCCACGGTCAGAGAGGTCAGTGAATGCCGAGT target_entity="RARb:RXRa (NR concentration 270 nM, RXRa partner concentration 90 nM)" cat=MET
seq_string=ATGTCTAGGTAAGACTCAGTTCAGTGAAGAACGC target_entity="RARb:RXRa (NR concentration 270 nM, RXRa partner concentration 90 nM)" cat="NOT MET"
seq_string=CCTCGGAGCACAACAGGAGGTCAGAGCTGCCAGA target_entity="RARb:RXRa (NR concentration 270 nM, RXRa partner concentration 90 nM)" cat="NOT MET"
seq_string=ATCGAAAGGTTGACGAGGTGAGTATACACCGTTT target_entity="RARb:RXRa (NR concentration 270 nM, RXRa partner concentration 90 nM)" cat="NOT MET"
seq_string=TAGCCTAGGTCATCGGGCCAGTATAGTACGCATC target_entity="RARb:RXRa (NR concentration 270 nM, RXRa partner concentration 90 nM)" cat=MET
seq_string=CGAACTAGGTCAAGAACAGTGAATCTCCGCACGC target_entity="RARb:RXRa (NR concentration 270 nM, RXRa partner concentration 90 nM)" cat=MET
seq_string=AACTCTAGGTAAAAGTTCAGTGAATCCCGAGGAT target_entity="RARb:RXRa (NR concentration 270 nM, RXRa partner concentration 90 nM)" cat=MET
seq_string=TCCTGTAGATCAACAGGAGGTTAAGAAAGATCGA target_entity="RARb:RXRa (NR concentration 270 nM, RXRa partner concentration 90 nM)" cat="NOT MET"
seq_string=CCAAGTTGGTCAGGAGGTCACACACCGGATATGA target_entity="RARb:RXRa (NR concentration 270 nM, RXRa partner concentration 90 nM)" cat=MET
seq_string=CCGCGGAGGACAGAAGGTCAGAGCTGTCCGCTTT target_entity="RARb:RXRa (NR concentration 270 nM, RXRa partner concentration 90 nM)" cat=MET
seq_string=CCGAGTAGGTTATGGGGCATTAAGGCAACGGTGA target_entity="RARb:RXRa (NR concentration 270 nM, RXRa partner concentration 90 nM)" cat="NOT MET"
seq_string=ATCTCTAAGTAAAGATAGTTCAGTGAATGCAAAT target_entity="RARb:RXRa (NR concentration 270 nM, RXRa partner concentration 90 nM)" cat="NOT MET"
seq_string=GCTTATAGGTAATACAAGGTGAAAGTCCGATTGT target_entity="RARb:RXRa (NR concentration 270 nM, RXRa partner concentration 90 nM)" cat="NOT MET"
seq_string=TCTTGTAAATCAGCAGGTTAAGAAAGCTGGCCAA target_entity="RARb:RXRa (NR concentration 270 nM, RXRa partner concentration 90 nM)" cat="NOT MET"
seq_string=CCAGACAGGTGAAAGGAAACTCAGTCTGGTACGC target_entity="RARb:RXRa (NR concentration 270 nM, RXRa partner concentration 90 nM)" cat="NOT MET"
seq_string=AATACAGGGTCATCGTATGCCAGAGTACGCACAG target_entity="RARb:RXRa (NR concentration 270 nM, RXRa partner concentration 90 nM)" cat=MET
seq_string=GCGGCTGGGGCATCAGCAGGTTACCATAACTTAA target_entity="RARb:RXRa (NR concentration 270 nM, RXRa partner concentration 90 nM)" cat="NOT MET"
seq_string=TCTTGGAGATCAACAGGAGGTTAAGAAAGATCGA target_entity="RARb:RXRa (NR concentration 270 nM, RXRa partner concentration 90 nM)" cat="NOT MET"
seq_string=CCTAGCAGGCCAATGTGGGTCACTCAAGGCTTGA target_entity="RARb:RXRa (NR concentration 270 nM, RXRa partner concentration 90 nM)" cat="NOT MET"
seq_string=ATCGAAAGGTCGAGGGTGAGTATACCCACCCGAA target_entity="RARb:RXRa (NR concentration 270 nM, RXRa partner concentration 90 nM)" cat=MET
seq_string=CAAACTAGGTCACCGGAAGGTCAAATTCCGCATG target_entity="RARb:RXRa (NR concentration 270 nM, RXRa partner concentration 90 nM)" cat=MET
seq_string=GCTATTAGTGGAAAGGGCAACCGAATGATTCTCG target_entity="RARb:RXRa (NR concentration 270 nM, RXRa partner concentration 90 nM)" cat="NOT MET"
seq_string=TCGAGTAGGTTACCAATGGGGCATTCTGCTTTCT target_entity="RARb:RXRa (NR concentration 270 nM, RXRa partner concentration 90 nM)" cat="NOT MET"
seq_string=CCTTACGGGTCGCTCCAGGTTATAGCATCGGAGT target_entity="RARb:RXRa (NR concentration 270 nM, RXRa partner concentration 90 nM)" cat="NOT MET"
seq_string=CTCGAAAGGTCTGTTGAGGTGAGTATACGGATAA target_entity="RARb:RXRa (NR concentration 270 nM, RXRa partner concentration 90 nM)" cat="NOT MET"
seq_string=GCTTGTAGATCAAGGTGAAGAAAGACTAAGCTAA target_entity="RARb:RXRa (NR concentration 270 nM, RXRa partner concentration 90 nM)" cat="NOT MET"
seq_string=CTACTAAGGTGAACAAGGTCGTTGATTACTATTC target_entity="RARb:RXRa (NR concentration 270 nM, RXRa partner concentration 90 nM)" cat=MET
seq_string=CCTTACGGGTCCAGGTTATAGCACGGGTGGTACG target_entity="RARb:RXRa (NR concentration 270 nM, RXRa partner concentration 90 nM)" cat="NOT MET"
seq_string=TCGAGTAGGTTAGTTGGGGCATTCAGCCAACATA target_entity="RARb:RXRa (NR concentration 270 nM, RXRa partner concentration 90 nM)" cat="NOT MET"
seq_string=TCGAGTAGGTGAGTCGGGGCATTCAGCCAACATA target_entity="RARb:RXRa (NR concentration 270 nM, RXRa partner concentration 90 nM)" cat="NOT MET"
seq_string=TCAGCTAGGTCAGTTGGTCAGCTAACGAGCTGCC target_entity="RARb:RXRa (NR concentration 270 nM, RXRa partner concentration 90 nM)" cat=MET
seq_string=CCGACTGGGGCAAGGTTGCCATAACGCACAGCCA target_entity="RARb:RXRa (NR concentration 270 nM, RXRa partner concentration 90 nM)" cat="NOT MET"
seq_string=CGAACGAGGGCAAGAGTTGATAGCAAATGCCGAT target_entity="RARb:RXRa (NR concentration 270 nM, RXRa partner concentration 90 nM)" cat=MET
seq_string=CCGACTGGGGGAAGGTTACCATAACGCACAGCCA target_entity="RARb:RXRa (NR concentration 270 nM, RXRa partner concentration 90 nM)" cat="NOT MET"
seq_string=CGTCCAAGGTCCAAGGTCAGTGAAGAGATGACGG target_entity="RARb:RXRa (NR concentration 270 nM, RXRa partner concentration 90 nM)" cat=MET
seq_string=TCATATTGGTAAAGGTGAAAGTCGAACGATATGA target_entity="RARb:RXRa (NR concentration 270 nM, RXRa partner concentration 90 nM)" cat="NOT MET"
seq_string=CGTCCAAGGTCAAGGTCAGTGATAGAGACTCGAA target_entity="RARb:RXRa (NR concentration 270 nM, RXRa partner concentration 90 nM)" cat=MET
seq_string=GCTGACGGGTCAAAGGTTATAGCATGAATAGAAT target_entity="RARb:RXRa (NR concentration 270 nM, RXRa partner concentration 90 nM)" cat=MET
seq_string=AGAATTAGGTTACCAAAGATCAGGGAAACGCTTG target_entity="RARb:RXRa (NR concentration 270 nM, RXRa partner concentration 90 nM)" cat="NOT MET"
seq_string=CGTCAAAGTTCAAGGTGACGTAACAGAAAGCAGC target_entity="RARb:RXRa (NR concentration 270 nM, RXRa partner concentration 90 nM)" cat=MET
seq_string=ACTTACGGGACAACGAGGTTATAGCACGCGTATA target_entity="RARb:RXRa (NR concentration 270 nM, RXRa partner concentration 90 nM)" cat="NOT MET"
seq_string=CCTGGTAGGTCATGGTCAGCTAATCTACAGTATG target_entity="RARb:RXRa (NR concentration 270 nM, RXRa partner concentration 90 nM)" cat=MET
seq_string=CCTAGTTGGTCACGAGGTCACACACCGGATATGA target_entity="RARb:RXRa (NR concentration 270 nM, RXRa partner concentration 90 nM)" cat=MET
seq_string=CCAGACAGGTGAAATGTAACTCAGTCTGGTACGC target_entity="RARb:RXRa (NR concentration 270 nM, RXRa partner concentration 90 nM)" cat="NOT MET"
seq_string=CTACCAAGGTGAACATGGTCGTTGATTACTATTC target_entity="RARb:RXRa (NR concentration 270 nM, RXRa partner concentration 90 nM)" cat="NOT MET"
seq_string=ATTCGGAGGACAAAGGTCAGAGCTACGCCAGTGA target_entity="RARb:RXRa (NR concentration 270 nM, RXRa partner concentration 90 nM)" cat=MET
seq_string=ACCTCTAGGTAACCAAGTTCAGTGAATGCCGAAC target_entity="RARb:RXRa (NR concentration 270 nM, RXRa partner concentration 90 nM)" cat="NOT MET"
seq_string=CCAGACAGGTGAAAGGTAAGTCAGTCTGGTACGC target_entity="RARb:RXRa (NR concentration 270 nM, RXRa partner concentration 90 nM)" cat="NOT MET"
